Exercise: state measured log10 Kd for each of the binders provided.
assayTarget: T1, EsCas13d, nuclease-dead (Eubacterium siraeum, UniProt B0MS50, R295A;H300A;R849A;H854A)
T1 sequence: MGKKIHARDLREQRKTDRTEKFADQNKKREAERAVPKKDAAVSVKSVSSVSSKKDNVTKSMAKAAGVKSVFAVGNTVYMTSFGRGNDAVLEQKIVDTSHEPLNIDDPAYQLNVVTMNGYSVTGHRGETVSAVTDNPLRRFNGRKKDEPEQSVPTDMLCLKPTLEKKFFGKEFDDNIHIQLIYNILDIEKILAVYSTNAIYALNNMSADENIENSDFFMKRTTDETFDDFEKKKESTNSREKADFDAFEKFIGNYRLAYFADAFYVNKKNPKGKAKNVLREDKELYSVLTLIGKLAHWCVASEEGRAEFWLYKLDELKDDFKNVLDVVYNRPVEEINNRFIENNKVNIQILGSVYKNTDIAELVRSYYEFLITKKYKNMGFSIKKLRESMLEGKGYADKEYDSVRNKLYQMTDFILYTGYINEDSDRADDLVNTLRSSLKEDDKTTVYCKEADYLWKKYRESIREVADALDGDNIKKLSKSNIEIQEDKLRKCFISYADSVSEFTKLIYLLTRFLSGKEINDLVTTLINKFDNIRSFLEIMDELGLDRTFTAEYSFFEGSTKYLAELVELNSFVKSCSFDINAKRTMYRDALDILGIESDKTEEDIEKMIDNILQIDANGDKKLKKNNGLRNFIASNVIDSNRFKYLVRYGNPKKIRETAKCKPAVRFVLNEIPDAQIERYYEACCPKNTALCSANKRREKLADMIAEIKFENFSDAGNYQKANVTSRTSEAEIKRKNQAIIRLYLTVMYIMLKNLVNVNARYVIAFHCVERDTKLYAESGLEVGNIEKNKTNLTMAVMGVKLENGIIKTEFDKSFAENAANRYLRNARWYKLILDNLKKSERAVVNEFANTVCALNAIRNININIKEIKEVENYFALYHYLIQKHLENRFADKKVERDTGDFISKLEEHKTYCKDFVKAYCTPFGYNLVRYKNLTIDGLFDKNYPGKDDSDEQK
methodNotes: crRNA (strand 1, pre-loaded); Mg2+; 40 mM Tris-HCl pH 7.5, 150 mM NaCl, 6 mM MgCl2, 1 mM DTT, 0.1% Tween-20, 0.2 mg/ml BSA; 25 C; 10 min per concentration, then washed
details: tags: His6-TwinStrep-SUMO cleaved; N-terminal SNAP kept (SNAP-Surface 488); label: 3' end held by stalled T7 RNA polymerase
Record value = log10 of Kd given in nM.

Input target 1 MT 5'PFS UGC 3'PFS CAA (mixed) RNA 1: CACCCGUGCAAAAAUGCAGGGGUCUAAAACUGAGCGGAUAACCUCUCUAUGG RNA 2: GGGAAUGGAUCCACAUCUACGAAUUCUGCCCAUAGAGAGGUUAUCCGCUCACAAAGAUCGGAAGAGCACACGU . Output log10 Kd: 1.80

Input target 1 insG 3' of 16,insU 3' of 6 (mixed) RNA 1: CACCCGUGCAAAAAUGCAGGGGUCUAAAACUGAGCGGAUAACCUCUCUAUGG RNA 2: GGGAAUGGAUCCACAUCUACGAAUUCGUACCAUAGAGGAGGUUAUCCUGCUCACCGAGAUCGGAAGAGCACACGU . Output log10 Kd: 1.32

Input target 2 MT 5'PFS AUU 3'PFS ACG (mixed) RNA 1: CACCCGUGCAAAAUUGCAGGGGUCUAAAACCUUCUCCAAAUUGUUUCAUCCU RNA 2: GGGAAUGGAUCCACAUCUACGAAUUCAUUAGGAUGAAACAAUUUGGAGAAGACGAGAUCGGAAGAGCACACGU . Output log10 Kd: 0.95

Input target 1 insC 3' of 15,insU 3' of 12 (mixed) RNA 1: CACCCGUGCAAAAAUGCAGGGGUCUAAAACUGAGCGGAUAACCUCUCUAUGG RNA 2: GGGAAUGGAUCCACAUCUACGAAUUCGUACCAUAGAGCAGGUUUAUCCGCUCACCGAGAUCGGAAGAGCACACGU . Output log10 Kd: 1.16

Input target 1 complement block 5-8 (mixed) RNA 1: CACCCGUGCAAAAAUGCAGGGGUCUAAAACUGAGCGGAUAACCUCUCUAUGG RNA 2: GGGAAUGGAUCCACAUCUACGAAUUCGUACCAUAGAGAGGUUAAGGCCUCACCGAGAUCGGAAGAGCACACGU . Output log10 Kd: 1.17

Input target 2 MT 5'PFS GGA 3'PFS CAC (mixed) RNA 1: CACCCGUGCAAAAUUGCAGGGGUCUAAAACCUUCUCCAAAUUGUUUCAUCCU RNA 2: GGGAAUGGAUCCACAUCUACGAAUUCGGAAGGAUGAAACAAUUUGGAGAAGCACAGAUCGGAAGAGCACACGU . Output log10 Kd: 0.97

Input target 1 C2G,C6G (mixed) RNA 1: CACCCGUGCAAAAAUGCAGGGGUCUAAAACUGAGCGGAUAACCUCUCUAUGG RNA 2: GGGAAUGGAUCCACAUCUACGAAUUCGUACCAUAGAGAGGUUAUCGGCUGACCGAGAUCGGAAGAGCACACGU . Output log10 Kd: 0.65

Input target 3 G4U,U7C (mixed) RNA 1: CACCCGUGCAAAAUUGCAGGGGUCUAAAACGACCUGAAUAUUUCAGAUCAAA RNA 2: GGGAAUGGAUCCACAUCUACGAAUUCGUUUUUGAUCUGAAAUAUCCAUGUCUGCAGAUCGGAAGAGCACACGU . Output log10 Kd: 2.08

Input target 1 insC 3' of 22,insC 3' of 1 (mixed) RNA 1: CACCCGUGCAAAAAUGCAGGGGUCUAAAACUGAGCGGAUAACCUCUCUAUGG RNA 2: GGGAAUGGAUCCACAUCUACGAAUUCGUACCCAUAGAGAGGUUAUCCGCUCACCCGAGAUCGGAAGAGCACACGU . Output log10 Kd: 1.24

Input target 2 MT 5'PFS AAC 3'PFS CAC (mixed) RNA 1: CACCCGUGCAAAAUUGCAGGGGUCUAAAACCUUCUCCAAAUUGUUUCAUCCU RNA 2: GGGAAUGGAUCCACAUCUACGAAUUCAACAGGAUGAAACAAUUUGGAGAAGCACAGAUCGGAAGAGCACACGU . Output log10 Kd: 0.79

Input target 3 del2 (mixed) RNA 1: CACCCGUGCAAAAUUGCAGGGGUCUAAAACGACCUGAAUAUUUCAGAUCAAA RNA 2: GGGAAUGGAUCCACAUCUACGAAUUCGUUUUUGAUCUGAAAUAUUCAGGCUGCAGAUCGGAAGAGCACACGU . Output log10 Kd: 0.96
